- measured_target: T1, human 5T4 oncofoetal antigen (human, UniProt Q13641 32-420)
- T1 construct: whole, on cells; also called hu 5T4; human 5T4 antigen
- T1 sequence (looked up): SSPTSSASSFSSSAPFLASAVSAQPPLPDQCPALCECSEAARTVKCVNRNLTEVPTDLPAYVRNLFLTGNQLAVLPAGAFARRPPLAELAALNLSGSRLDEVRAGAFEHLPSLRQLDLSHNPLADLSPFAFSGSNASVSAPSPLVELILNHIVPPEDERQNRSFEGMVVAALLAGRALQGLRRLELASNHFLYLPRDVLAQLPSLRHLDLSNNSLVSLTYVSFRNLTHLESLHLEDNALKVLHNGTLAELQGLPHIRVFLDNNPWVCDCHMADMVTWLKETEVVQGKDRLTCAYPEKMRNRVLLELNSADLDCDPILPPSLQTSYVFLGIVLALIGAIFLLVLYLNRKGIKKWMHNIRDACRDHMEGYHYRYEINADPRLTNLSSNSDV
- assay: flow cytometry, PA-1 cells
EC50 values, listed per item
Quick note: give the figure in µg/mL, leave out the unit.

Example entries and their recorded answers appear below.
binder	unit_name	EC50
chimeric anti-5T4 monoclonal antibody 847 (antibody, human IgG1, V domains shown) VH: QSVEESGGRLVTPGTPLTLTCTVSGFSLSSYDMSWVRQAPGKGLEYIGYINSDGSAYYASWAKGRFTISKTSSTTVDLKITSPTTEDTATYFCARDAGSTYLYGMDPWGPGTLVTVSS VL: DVVMTQTPASVSEPVGGTVTINCQASQSIYSYLAWYQQKPGQRPKLLIYAASTLASGVSSRFKGSGSGTQFTLTISDLESADAATYYCQCTYYGGTFNTFGGGTEVVVK	µg/mL	0.22
chimeric anti-5T4 monoclonal antibody 843 (antibody, human IgG1, V domains shown) VH: QSLEESGGRLVTPGTPLTLTCTASGFSLNNAYMNWVRQAPGKGLEWIGIINTYGSTYFATWAKGRFTFSKTSTTVDLKITSPTTEDTATYFCARAYAPFSTYSHYYGMDLWGPGTLVTVSS VL: DVVMTQTPSSVSAAVGGTVTIKCQASESIGSWLSWYQQKPGQPPKLLIYEASKLTSGVPSRFKGSGSGTEYTLTISDLESADAATYYCQYTDYGSNYLGTFGGGTEVVVK	µg/mL	0.04

EC50 for chimeric anti-5T4 monoclonal antibody 848 (antibody, human IgG1, V domains shown) VH: QSVEESGGRLVTPGTPLTLTCTVSGFSLSSYTMSWVRQAPGKGLEWIGIISSIGSIWYASWAKGRFTISKTSTTVDLKMTSLTTEDTATYFCARDGTGSKYYTWDRLDLWGQGTLVTVSS VL: NIVMTQTPSPVSGAVGGTVTINCQASQSIYNELSWYQQKPGQPPKLLIYYTSTLASGVSSRFKGSGSGTQFTLTISGVESVDAATYYCQQGYSSSDVDNVFGGGTEVVVK is 0.05
